Catalogue of molecules with associated clearance
experiment: Plasma clearance in rat; assay type: ADME, organism-based

smiles_entry	endpoint_unit	clearance
Cc1cnc2c(c1)CN(CCn1ncc3c1nc(N)n1nc(-c4ccco4)nc31)CC2	mL/min/kg	4.7
COc1ccc(N2CCOCC2)c2sc(NC(=O)N3CCC(C)(O)CC3)nc12	mL/min/kg	11

---

pKi: −log10 of the molar value.
The molecules below have reported pKi for Adenosine receptor A2b (Homo sapiens).

molecule	censor_symbol	pKi
C#CCn1c(=O)c2c(nc(/C=C/c3cccc(OC)c3)n2C)n(CCCO)c1=O	=	5.54
O[C@H](c1cc(C(F)(F)F)nc2c(C(F)(F)F)cccc12)[C@@H]1CCCCN1 [(R,S)-MEFLOQUINE]	=	5.15
COCCOc1ccc(N2CCN(CCn3ncc4c3nc(N)n3nc(-c5ccco5)nc43)CC2)cc1 [PRELADENANT]	<	5.77
Nc1nc(-c2ccco2)c2ncn(C(=O)NCc3ccco3)c2n1	=	6.85
Nc1nc(-c2ccco2)c2ncn(C(=O)NCc3ccccc3)c2n1	=	6.95

---

So I've got Ki readings for Adenosine receptor A2a (Rattus norvegicus), take a look.
measurement_label: Ki (nM)

smiles_entry	target_system	measurement_label	value_measured
Nc1nc2ccc(Cl)cc2c2nc(-c3ccco3)nn12	Adenosine receptor A2a (Rattus norvegicus)	Ki	0.4
C#CCn1c(=O)c2c(nc(/C=C/c3cccc(OC)c3)n2C)n(CCCO)c1=O	Adenosine receptor A2a (Rattus norvegicus)	Ki	5

---

Reported half-life is given for each of the following molecules.
assay: Half life in rat; type: ADME, organism-based; details: in vivo

smiles_entry	half-life
Cc1cnc2c(c1)CN(CCn1ncc3c1nc(N)n1nc(-c4ccco4)nc31)CC2	11.3 h
COc1ccc(N2CCOCC2)c2sc(NC(=O)N3CCC(C)(O)CC3)nc12	4 h

---

pKi: −log10 of the molar value.
# pKi measurements, system: UniProt:P0DMS8

smiles_entry	pKi
CCn1c(=O)c2c(nc(/C=C/c3ccc(OC)c(OC)c3)n2C)n(CC)c1=O	< 5.52
Nc1nc(-c2ccco2)c2ncn(C(=O)NCc3ccccc3)c2n1	5.83
Nc1nc(NCCc2ccc(O)cc2)nc2nc(-c3ccco3)nn12	< 5.00
CCCCc1nc(N)c2nc(-n3nccn3)n(C)c2n1	< 5.00
Nc1nc2c(cnn2CCc2ccccc2)c2nc(-c3ccco3)nn12	5.92
CC(C)n1cc(-c2ncc(N)nc2-c2ccc(F)cc2)ccc1=O	< 6.25
COCCOc1ccc(N2CCN(CCn3ncc4c3nc(N)n3nc(-c5ccco5)nc43)CC2)cc1	< 6.00
Nc1nc(-c2ccco2)c2ncn(C(=O)NCc3ccco3)c2n1	5.71

---

molecular target: Adenosine receptor A3 (Homo sapiens, UniProt P0DMS8); test: Binding affinity to human recombinant adenosine A3 receptor
Sequence (P0DMS8 whole entry): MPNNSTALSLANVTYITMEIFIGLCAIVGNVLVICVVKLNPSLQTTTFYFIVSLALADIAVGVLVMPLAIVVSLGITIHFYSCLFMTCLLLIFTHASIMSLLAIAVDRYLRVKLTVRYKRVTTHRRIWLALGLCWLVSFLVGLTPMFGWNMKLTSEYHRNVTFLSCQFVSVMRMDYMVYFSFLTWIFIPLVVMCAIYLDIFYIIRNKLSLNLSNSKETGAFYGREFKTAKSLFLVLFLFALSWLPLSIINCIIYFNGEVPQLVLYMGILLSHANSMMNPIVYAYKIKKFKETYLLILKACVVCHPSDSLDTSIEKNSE
pKi: −log10 of the molar value.
measurement_label: pKi

compound	value_measured
CCNC(=O)[C@H]1O[C@@H](n2cnc3c(N)nc(C#CC[C@H]4CC[C@H](C(=O)OC)CC4)nc32)[C@H](O)[C@@H]1O [APADENOSON]	7.35
O=C(Nc1ccc(F)cc1)Nc1ccc(Nc2nc(-c3ccccc3)nc3c2nnn3Cc2ccccc2)cc1	7.04
CNC(=O)c1cnn(-c2nc(N)c3ncn([C@@H]4O[C@H](CO)[C@@H](O)[C@H]4O)c3n2)c1 [REGADENOSON ANHYDROUS]	5.00
Nc1nc(Cl)nc2c1ncn2[C@@H]1O[C@H](CO)[C@@H](O)[C@H]1O	7.72

---

assay: Volume of distribution in dog; type: ADME, organism-based, Canis lupus familiaris; settings: in vivo
measurement_label: Vd (L/kg)

smiles_entry	endpoint_unit	value_measured
COc1ccc(N2CCOCC2)c2sc(NC(=O)N3CCC(C)(O)CC3)nc12	L/kg	1.2

---

A collection of molecules and their measured Ratio Ki
species: Homo sapiens; assay: Selectivity ratio of Ki for human recombinant adenosine A1 receptor to Ki for human recombinant adenosine receptor A2a

molecule	Ratio Ki
CC1(C)CCCN(c2nnc(N)nc2-c2ccccc2)C1	245
COCc1cccc(CNC(=O)c2cc(-c3ccco3)nc(N)n2)n1	25
CC(=O)Nc1cc(-n2cccn2)nc(-c2ccco2)n1	17
Cc1cc(C)n(-c2cc(NC(=O)CN3CCN(C)CC3)nc(-c3nccs3)n2)n1	222
Nc1nc2c(cnn2CCN2CCOCC2)c2nn(Cc3cccc(Cl)c3)c(=O)n12	99
COc1cnc(N2CCOCC2)c2sc(NC(=O)c3ccc(F)cc3)nc12	420
CC1CN(c2nnc(N)nc2-c2ccccc2)CC(C)O1 (stereo unspecified)	617
CC(C)c1nc(-c2nccs2)c2sccc2n1	148
COCCOc1ccc(N2CCN(CCn3cnc4c3nc(N)n3nc(-c5ccco5)nc43)CC2)cc1	669
CN(C)CCn1ncc2c1nc(N)n1c(=O)n(Cc3cccc(Cl)c3)nc21	269
CC(=O)CCc1nc(N)c2nc(-n3nccn3)n(C)c2n1	16

---

assay: Oral bioavailability in rat; type: ADME, organism-based; conditions: in vivo
bioavailability values, listed per item
measurement_label: bioavailability (%)

smiles_entry	endpoint_unit	value_measured
COCc1cccc(CNC(=O)c2cc(-c3ccco3)nc(N)n2)n1	%	90
CC(C)c1nc(-c2nccs2)c2sccc2n1	%	5.8

---

As an illustration, consider measured Ki for compounds on Adenosine receptor A2a (Homo sapiens).
Sequence (P29274 whole entry): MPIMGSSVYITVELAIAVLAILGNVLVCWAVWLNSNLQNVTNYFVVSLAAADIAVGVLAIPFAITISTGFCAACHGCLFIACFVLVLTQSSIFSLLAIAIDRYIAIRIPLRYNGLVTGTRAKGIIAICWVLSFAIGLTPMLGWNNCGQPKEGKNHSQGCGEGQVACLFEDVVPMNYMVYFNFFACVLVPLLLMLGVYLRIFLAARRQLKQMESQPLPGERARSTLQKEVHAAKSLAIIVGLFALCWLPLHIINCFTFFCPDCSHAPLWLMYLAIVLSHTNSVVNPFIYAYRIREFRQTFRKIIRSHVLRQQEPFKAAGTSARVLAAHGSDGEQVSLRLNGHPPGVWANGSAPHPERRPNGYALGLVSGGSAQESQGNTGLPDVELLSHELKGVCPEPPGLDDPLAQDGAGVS

smiles_entry	endpoint_unit	Ki
Nc1nc(Cl)nc2c1ncn2[C@@H]1O[C@H](CO)[C@@H](O)[C@H]1O	µM	0.18
O=C(Nc1ccc(F)cc1)Nc1ccc(Nc2nc(-c3ccccc3)nc3c2nnn3Cc2ccccc2)cc1	µM	0.167

---

experiment: Solubility of the compound at pH 7.4; format: physicochemical; conditions: buffer

smiles_entry	solubility (µg/mL)
COC1CCN(c2cccc(-c3cc(NC(C)=O)nc(-n4nc(C)cc4C)n3)n2)CC1	30

---

assay: Volume of distribution in rat; type: ADME, organism-based; conditions: in vivo

smiles_entry	Vd, L/kg
COc1ccc(N2CCOCC2)c2sc(NC(=O)N3CCC(C)(O)CC3)nc12	1.4

---

experiment: Ratio of drug level from brain to plasma in rat; format: ADME; settings: read-out: BPR

smiles_entry	Kp
COCCOc1ccc(N2CCN(CCn3ncc4c3nc(N)n3nc(-c5ccco5)nc43)CC2)cc1	1

---

molecular target: Adenosine receptor A2a (Rattus norvegicus, UniProt P30543); experiment: Binding affinity to rat recombinant adenosine receptor A2a
Sequence (P30543 whole entry): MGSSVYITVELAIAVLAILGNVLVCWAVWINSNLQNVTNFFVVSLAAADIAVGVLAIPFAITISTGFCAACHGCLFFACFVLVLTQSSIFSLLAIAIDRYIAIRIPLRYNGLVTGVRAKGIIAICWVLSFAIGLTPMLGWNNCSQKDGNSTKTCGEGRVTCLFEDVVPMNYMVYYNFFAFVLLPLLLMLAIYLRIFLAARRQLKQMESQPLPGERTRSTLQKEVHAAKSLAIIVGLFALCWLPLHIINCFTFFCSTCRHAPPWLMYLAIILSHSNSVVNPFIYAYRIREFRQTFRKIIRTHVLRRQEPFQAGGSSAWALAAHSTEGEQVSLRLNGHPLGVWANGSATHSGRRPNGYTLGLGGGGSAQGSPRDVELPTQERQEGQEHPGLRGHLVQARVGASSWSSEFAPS
pKi: −log10 of the molar value.

smiles_entry	target_system	pKi
Nc1nc(Nc2ccccc2)nc2c1ncn2[C@@H]1O[C@H](CO)[C@@H](O)[C@H]1O	Adenosine receptor A2a (Rattus norvegicus, UniProt P30543)	7.00

---

pKi, Adenosine receptor A1 (Homo sapiens, UniProt P30542), per-entry values.
pKi: −log10 of the molar value.

molecule	censor_symbol	pKi
COCCOc1ccc(N2CCN(CCn3ncc4c3nc(N)n3nc(-c5ccco5)nc43)CC2)cc1 [PRELADENANT]	<	6.00
Nc1nc2c(cnn2CCN2CCOCC2)c2nn(Cc3cccc(Cl)c3)c(=O)n12	=	5.85
COCCOc1ccc(N2CCN(CCn3cnc4c3nc(N)n3nc(-c5ccccn5)nc43)CC2)cc1	=	5.87
Nc1nnc(-c2ccccc2)c(-c2ccccc2)n1	=	6.57
COC1CCN(c2cccc(-c3cc(NC(C)=O)nc(-n4nc(C)cc4C)n3)n2)CC1	=	7.11
CC1CN(c2nnc(N)nc2-c2ccccc2)CC(C)O1 (centres undefined)	=	5.00
COCCOc1ccc(N2CCN(CCn3cnc4c3nc(N)n3nc(-c5ccco5)nc43)CC2)cc1	=	6.22
Cc1cc(-c2nnc(N)nc2-c2ccccc2)cc(C(F)(F)F)n1	=	7.51
Cc1ccc2cc(CCn3ncc4c3nc(N)n3nc(-c5ccco5)nc43)ccc2n1	=	6.39
